Target: Fatty acid-binding protein, liver (Mus musculus, UniProt P12710)
Sequence (P12710 whole entry): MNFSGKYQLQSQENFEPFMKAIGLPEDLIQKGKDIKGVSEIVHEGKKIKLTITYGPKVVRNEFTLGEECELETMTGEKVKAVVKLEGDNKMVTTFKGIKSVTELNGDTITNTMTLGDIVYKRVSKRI
pKi: −log10 of the molar value.
Measured pKi values are reported for all entries that follow.

compound: CCC=CCC=CCC=CCC=CCC=CCC=CCCC(=O)NCCO [Docosahexaenoylethanolamide (DHEA)]
pKi: 6.79
--
compound: CCCCCCCCCCCCCCCC(=O)OC(CO)CO [2-Palmitoylmonoglycerol (2-PG)]
pKi: 7.15
--
compound: Cc1ccc2c(c1)-c1c(ssc1=S)C(C)(C)N2C(=O)CC(C)C [SCPI4]
pKi: 7.48
--
compound: CCCCC/C=C\C/C=C\C/C=C\C/C=C\CCCC(=O)OC(CO)CO
pKi: 7.21
--
compound: CCCCCCCC/C=C\CCCCCCCC(=O)OC(CO)CO [2-Oleoylmonoglycerol (2-OG)]
pKi: 7.40
--
compound: CCCCCCCC/C=C\CCCCCCCC(=O)NCCO [Oleamide MEA]
pKi: 7.37
--
compound: CCCCCCCC/C=C\CCCCCCCC(=O)N[C@@H](CO)Cc1ccc(O)cc1 [OMDM2]
pKi: 7.40
--
compound: CCCCCc1cc(O)c2c(c1)OC(C)(C)[C@@H]1CCC(C)=C[C@@H]21
pKi: 6.00
--
compound: CCCCCCCC/C=C\CCCCCCCC(=O)N[C@H](CO)Cc1ccc(O)cc1 [OMDM1]
pKi: 7.40
--
compound: CCCCC/C=C\C/C=C\C/C=C\C/C=C\CCCC(=O)Nc1ccc(O)cc1
pKi: 7.54
